# TGT: SARS-CoV-2 Main Protease (SARS-CoV-2) (UniProt P0DTD1)
READOUT_NAME: IC50 (µM)
Give bare numbers, in µM.

COMPOUND: O=C(c1cc(=O)[nH]c2ccccc12)N1CCN(Cc2cccc(C(F)(F)F)c2)CC1
UOM: µM
EXPERIMENTAL_VALUE: 34.2
//
COMPOUND: O=C(Nc1cncc2ccccc12)C12CC(C1)Oc1ccc(Cl)cc12
UOM: µM
EXPERIMENTAL_VALUE: 56.4
//
COMPOUND: COCc1cc(Cl)cc(CN2CCN(C(=O)CCl)CC2)c1
UOM: µM
EXPERIMENTAL_VALUE: 4.77
//
COMPOUND: O=C(CC1(C(=O)Nc2cncc3ccccc23)CCOc2ccc(Cl)cc21)N1CCC2CS(=O)(=O)CC2C1 (stereo not given)
UOM: µM
EXPERIMENTAL_VALUE: 1.67
//
COMPOUND: COC(=O)[C@H]1C[C@H](NC(=O)C(c2cccnc2)N(C(=O)c2cocn2)c2ccc(C(C)(C)C)cc2)CN1C(=O)OC(C)(C)C (stereo in doubt)
UOM: µM
EXPERIMENTAL_VALUE: 0.837

Provide the reported IC50 of each entry below, same order.
1. O=C1CC2(CCOc3ccc(Cl)cc32)CN1c1cncc2ccccc12 (stereo not given)
2. CC(C)(C)Oc1ccncc1NC(=O)Cc1cccc(Cl)c1

Solution:
1. 6.74
2. 22.9

Problem: Retrieve IC50 measured for O=C(NC[C@@]1(C(=O)Nc2cncc3ccccc23)CCOc2ccc(Cl)cc21)[C@]1(O)CCSC1 (stereo in doubt) and print it.
Solution: 1.94

----------
# TGT: SARS-CoV-2 Main Protease (SARS-CoV-2)
pIC50: −log10 of the molar value.
Response key: true means pIC50 >= 5; false means pIC50 < 5.

MOLECULE: Cc1ccncc1NC(=O)Cc1cc(Cl)cc(OCCN2CCOCC2C)c1 (centres undefined)
QUALITATIVE_LABEL: false

Problem: # check: pIC50 of Cc1cc(C(F)(F)F)nc2n[nH]c(NC(=O)Cc3cccc(Cl)c3)c12 is greater than or equal to 5
Solution: false

Problem: # check: pIC50 of CC(=O)NC(C)c1cc(Cl)cc(-c2ccc(S(N)(=O)=O)cc2)c1 (centres undefined) is greater than or equal to 5
Solution: false

Problem: # check: pIC50 of O=C(OCC(=O)N1CCC(Cc2ccccc2)CC1)c1cc(=O)[nH]c(=O)[nH]1 is greater than or equal to 5
Solution: false

Problem: # check: pIC50 of O=C(Cc1cccc(Cl)c1)Nc1cncc2ccc(OCC(F)(F)F)cc12 is greater than or equal to 5
Solution: true

Problem: # check: pIC50 of COC1(CS(=O)(=O)N2Cc3ccc(Cl)cc3C3(CCN(c4cncc5ccc(OCCN(C)C)cc45)C3=O)C2)CC1 (centres undefined) is greater than or equal to 5
Solution: true

Problem: # check: pIC50 of Cc1ccc2c(NC(=O)Cc3cccc(Cl)c3)cncc2c1 is greater than or equal to 5
Solution: true

Problem: # check: pIC50 of O=C(NCCc1cccc(F)c1)C(c1cccnc1)N(C(=O)c1cnc[nH]1)c1ccc(OC2CCOC2)cc1 (centres undefined) is greater than or equal to 5
Solution: false

Problem: # check: pIC50 of CCNc1ncc(C#N)cc1CN1CCN(C(=O)CCl)CC1 is greater than or equal to 5
Solution: true

Problem: # check: pIC50 of COc1cc(N(C(=O)c2cnc[nH]2)C(C(=O)NCCc2cccc(F)c2)c2cccnc2)ccc1S(=O)(=O)N(C)C (centres undefined) is greater than or equal to 5
Solution: false

Problem: # check: pIC50 of O=C(Nc1cncc2ccccc12)C1COc2ccc(Cl)cc21 (centres undefined) is greater than or equal to 5
Solution: true

Problem: # check: pIC50 of O=C(NCCc1cccc(F)c1)C(c1cccnc1)N(C(=O)c1cocn1)c1ccc(S(=O)(=O)C2CCCC2)cc1 (centres undefined) is greater than or equal to 5
Solution: false

Problem: # check: pIC50 of CC(C)(C)NC(=O)CN1CC(C(=O)Nc2cncc3ccccc23)c2cc(Cl)ccc2C1=O (centres undefined) is greater than or equal to 5
Solution: true

Problem: # check: pIC50 of CCS(=O)(=O)N1Cc2ccc(Cl)cc2C(C(=O)Nc2cncc3ccccc23)C1 (centres undefined) is greater than or equal to 5
Solution: true

Problem: # check: pIC50 of Cc1ccncc1NC(=O)CCc1cccc(F)c1 is greater than or equal to 5
Solution: false

Problem: # check: pIC50 of Clc1scc(CN2CCC(c3ccn[nH]3)CC2)c1Cl is greater than or equal to 5
Solution: false

Problem: # check: pIC50 of CC1(CS(=O)(=O)N2Cc3ccc(Cl)cc3C(C(=O)Nc3cncc4cccc(Cl)c34)C2)CS(=O)(=O)C1 (centres undefined) is greater than or equal to 5
Solution: true

Problem: # check: pIC50 of CN(Cc1ccccc1Nc1cc(Cl)cc(CC(=O)Nc2cncc3ccccc23)c1)C1CCCCC1 is greater than or equal to 5
Solution: true

Problem: # check: pIC50 of Cc1ccc(C(=O)Nc2c(-c3cnn(C)c3)nc3ccccn23)cn1 is greater than or equal to 5
Solution: false

Problem: # check: pIC50 of Cc1ccc(S(=O)(=O)N2CCN(C(=O)CCl)C[C@H]2C(=O)NC2CCCCC2)cc1 (stereo in doubt) is greater than or equal to 5
Solution: true

Problem: # check: pIC50 of O=C(NC(c1ccccc1)c1ccccc1)[C@H]1CN(C(=O)CCl)CCN1S(=O)(=O)c1ccsc1 (stereo in doubt) is greater than or equal to 5
Solution: true

----------
# TGT: SARS-CoV-2 Main Protease (SARS-CoV-2) (UniProt P0DTD1)
READOUT_NAME: IC50

// below: answered molecules
MOLECULE: COc1ccccc1NC1CN(C(=O)c2cc(=O)[nH]c3ccccc23)C1
READOUT_NAME: IC50
EXPERIMENTAL_VALUE: > 99.5 µM
--
MOLECULE: O=C(Cc1cccc(Cl)c1)NC1C(=O)Nc2ccccc21 (stereo not drawn)
READOUT_NAME: IC50
EXPERIMENTAL_VALUE: > 99.5 µM

Problem: Retrieve IC50 measured for O=C(Nc1cncc2ccncc12)[C@H]1CCOc2cc(F)c(Cl)cc21 (stereo in doubt) and print it.
Solution: > 99.5 µM

----------
Lab note: pIC50 readings collected with SARS-CoV-2 Main Protease (SARS-CoV-2) (UniProt P0DTD1) for the following compounds.
One number for each entry, as −log10 of the molar value.

// below: answered compounds
MOLECULE: COc1cc(Nc2cc(Cl)cc(CC(=O)Nc3cncc4ccccc34)c2)c(Cl)cc1Cl
READOUT_NAME: pIC50
EXPERIMENTAL_VALUE: 5.17

MOLECULE: O=C(Cc1cc(Cl)cc(Nc2ccc([N+](=O)[O-])c3ccccc23)c1)Nc1cncc2ccccc12
READOUT_NAME: pIC50
EXPERIMENTAL_VALUE: 5.67

Problem: Retrieve pIC50 measured for Cc1cc(Cl)cc(CC2CCN(C(=O)CCl)CC2)c1 and print it.
Solution: 5.45

----------
Assignment: determine reported logD for the given compounds.
Answers are plain numbers.

COMPOUND: O=C(Nc1cncc2ccccc12)C1CN(S(=O)(=O)C2CNC2)Cc2ccc(Cl)cc21 (stereo not given)
logD: 1.4
//
COMPOUND: CS(=O)(=O)c1ccc2cncc(NC(=O)C3CCNc4cc(Cl)c(Cl)cc43)c2c1 (stereo not given)
logD: 3.1
//
COMPOUND: N#CC1(CS(=O)(=O)N2Cc3ccc(Cl)cc3C(C(=O)Nc3cncc4ccccc34)C2)CNC1 (stereo not given)
logD: 1.8
//
COMPOUND: O=C(Nc1cncc2ccccc12)C1CCS(=O)(=O)c2ccc(Cl)cc21 (stereo not given)
logD: 2

Consider now this further compound.
Problem: Retrieve logD measured for O=C(Cc1cccc(Cl)c1)Nc1cncc2cccc(F)c12 and print it.
Solution: 3.1

----------
Lab note: IC50 readings collected with SARS-CoV-2 Main Protease (SARS-CoV-2) (UniProt P0DTD1) for the following compounds.

// below: answered compounds
COMPOUND: Cc1nc(CN2C(=O)C(=O)c3cc(Br)ccc32)cs1
IC50: > 99.5 µM
//
COMPOUND: Cc1cccc2ncnc(NC(C)c3ccc4[nH]c(=O)[nH]c4c3)c12 (stereo not drawn)
IC50: > 99.5 µM
//
COMPOUND: Cc1c(Cl)cc(S(=O)(=O)N2CC=C(c3c[nH]c4ncccc34)CC2)cc1[N+](=O)[O-]
IC50: > 99.5 µM

Provide the reported IC50 of each entry below, same order.
1. CC(C)(C)c1ccc(N(C(=O)c2scnc2Cl)C(C(=O)NCCc2cccc(F)c2)c2cccnc2)cc1 (stereo not drawn)
2. C=CC(=O)N1CCN(S(=O)(=O)c2ccccc2)CC1
3. O=C(NCC1=[SH]C=CC1)[C@@H](c1ccccc1)N1Cc2ccccc2C1=O (stereo in doubt)
4. Cn1cncc1C(=O)N(c1ccc(C(C)(C)C)cc1)C(C(=O)NCCc1cccc(F)c1)c1cccnc1 (stereo not drawn)
5. O=C(NCCc1cccc(F)c1)C(c1cccnc1)N(C(=O)c1cnc[nH]1)C1CCN(c2ccccc2F)C1 (stereo not drawn)
6. Cn1c(NC(=O)Cc2csc3nccn23)nc2ccc(F)cc21
7. O=C(Cc1cccc(C(F)(F)F)c1)Nc1cnccc1C(=O)O
8. O=C(Cc1cc(Cl)cc(Nc2c(Cl)cc(Cl)cc2Br)c1)Nc1cncc2ccccc12

Solution:
["> 99.5 µM", "> 99.5 µM", "> 99.5 µM", "> 99.5 µM", "> 99 µM", "> 99.5 µM", "> 99.5 µM", "1.63 µM"]

Provide the reported IC50 of each entry below, same order.
1. CC(C)(C)OC(=O)CNC(=O)C(c1cccnc1)N(C(=O)c1cocn1)c1ccc(C(C)(C)C)cc1 (stereo not drawn)
2. COC1(CS(=O)(=O)N2CC(C(=O)Nc3cncc4cc(S(C)(=O)=O)ccc34)c3cc(Cl)ccc3C2=O)CC1 (stereo not drawn)

Solution:
1. 8.18 µM
2. 0.773 µM

All values here come from the COVID Moonshot data (paper PMC7615835).
